Parameter 'readout' = pIC50; parameter 'system' = His6-TEV-PDGFRβ (557-1016) (Homo sapiens (Human), UniProt P09619).
Please express pIC50 as -log10 of the molar concentration.

Examples with their reported pIC50 follow.
> print(dat)
                                   compound  observable  meas.value
1  Cc1ncc(NC(=O)OC[C@@H]2CCCN2C)cc1NC(=O)c1cnn2cc(-c3cnn(C)c3)sc12       pIC50        9.30
2  Cc1ncc(C(=O)NCCN2CCCC2(C)C)cc1NC(=O)c1cnn2cc(-c3cnn(Cc4cc(OCc5ccccc5)no4)c3)sc12       pIC50        9.30
3  Cc1ncc(NC(=O)CN2CCC3(CCOC3)C2)cc1NC(=O)c1cnn2cc(-c3cnn(C)c3)sc12 (centres unmarked)       pIC50        9.15
4  Cc1ncc(C(=O)NCCN2C[C@H]3CC[C@@H]2C3)cc1NC(=O)c1cnn2cc(-c3cnn(C)c3C)sc12       pIC50        9.52
5  COc1ncccc1-c1cn2ncc(C(=O)Nc3cc(NC(=O)C[C@H]4CCCN4C(C)C)cnc3C)c2s1       pIC50        9.70

Item: Cc1ncc(NC(=O)C2CCN(C(C)C)C2)cc1NC(=O)c1cnn2cc(-c3cnn4c3OCCC4)sc12 (centres unmarked) | System: His6-TEV-PDGFRβ (557-1016) (Homo sapiens (Human), UniProt P09619) | pIC50: 9.52

Item: `Cc1ncc(NC(=O)CN2C[C@@H](C)O[C@H](C)C2)cc1NC(=O)c1cnn2cc(-c3cn(C)nc3C)sc12` | System: His6-TEV-PDGFRβ (557-1016) (Homo sapiens (Human), UniProt P09619) | pIC50: 9.30

Item: `COc1cccc(-c2cn3ncc(C(=O)Nc4cc(NC(=O)CN5CC(C)(C)C5)cnc4C)c3s2)n1` | System: His6-TEV-PDGFRβ (557-1016) (Homo sapiens (Human), UniProt P09619) | pIC50: 9.70

Item: COc1ncccc1-c1cn2ncc(C(=O)Nc3cc(NC(=O)C4CCCCN4C(C)C)cnc3C)c2s1 (centres unmarked) | System: His6-TEV-PDGFRβ (557-1016) (Homo sapiens (Human), UniProt P09619) | pIC50: 9.52

Item: `CC(=O)N1CCN(CCNC(=O)c2cnc(C)c(NC(=O)c3cnn4cc(-c5cnn(C)c5)sc34)c2)CC1` | System: His6-TEV-PDGFRβ (557-1016) (Homo sapiens (Human), UniProt P09619) | pIC50: 8.54

###

Each item that follows carries a reported IC50.
# Test System: VEGFR2, unphosphorylated (Homo sapiens (Human), UniProt P35968)
# Sequence (P35968 20-1356): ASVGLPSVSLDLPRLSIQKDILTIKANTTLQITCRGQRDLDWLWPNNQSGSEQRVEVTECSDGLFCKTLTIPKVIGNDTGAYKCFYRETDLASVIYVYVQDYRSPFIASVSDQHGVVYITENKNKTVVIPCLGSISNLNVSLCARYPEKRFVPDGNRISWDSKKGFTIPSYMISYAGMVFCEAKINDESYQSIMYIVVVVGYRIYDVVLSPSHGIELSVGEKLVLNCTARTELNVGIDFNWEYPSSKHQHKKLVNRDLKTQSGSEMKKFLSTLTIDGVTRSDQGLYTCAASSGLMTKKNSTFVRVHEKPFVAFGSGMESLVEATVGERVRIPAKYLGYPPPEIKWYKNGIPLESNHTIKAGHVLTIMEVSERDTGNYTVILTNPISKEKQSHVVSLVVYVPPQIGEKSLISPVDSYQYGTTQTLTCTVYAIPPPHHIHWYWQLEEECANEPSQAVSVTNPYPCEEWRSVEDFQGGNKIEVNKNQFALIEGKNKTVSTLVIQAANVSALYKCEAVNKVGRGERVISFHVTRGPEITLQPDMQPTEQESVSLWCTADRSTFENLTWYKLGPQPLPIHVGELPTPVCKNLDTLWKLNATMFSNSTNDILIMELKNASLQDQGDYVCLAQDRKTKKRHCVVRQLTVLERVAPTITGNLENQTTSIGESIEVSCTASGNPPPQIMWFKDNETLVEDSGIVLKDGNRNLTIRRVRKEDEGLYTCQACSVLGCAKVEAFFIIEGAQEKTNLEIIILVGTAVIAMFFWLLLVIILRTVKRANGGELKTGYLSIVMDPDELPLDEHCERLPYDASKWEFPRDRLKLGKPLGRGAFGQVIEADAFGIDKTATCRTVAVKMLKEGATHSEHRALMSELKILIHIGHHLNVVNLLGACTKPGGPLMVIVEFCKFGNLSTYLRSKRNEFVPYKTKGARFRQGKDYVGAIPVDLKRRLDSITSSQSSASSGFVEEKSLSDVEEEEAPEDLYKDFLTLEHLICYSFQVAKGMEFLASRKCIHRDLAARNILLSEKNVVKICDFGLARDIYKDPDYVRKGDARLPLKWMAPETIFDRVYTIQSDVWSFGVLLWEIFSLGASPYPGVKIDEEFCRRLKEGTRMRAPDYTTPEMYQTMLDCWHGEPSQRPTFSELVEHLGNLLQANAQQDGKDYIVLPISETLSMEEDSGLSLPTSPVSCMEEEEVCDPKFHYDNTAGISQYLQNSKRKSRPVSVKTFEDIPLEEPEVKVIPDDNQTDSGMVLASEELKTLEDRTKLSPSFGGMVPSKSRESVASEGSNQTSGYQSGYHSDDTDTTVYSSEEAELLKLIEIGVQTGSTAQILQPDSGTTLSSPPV
# Experiment Notes: VEGFR ADP GLO Assay

Examples with their reported IC50 follow.
> print(dat)
                         compound.structure                               test.system  meas.value
1  COCCn1cc(-c2cn3ncc(C(=O)Nc4cc(NC(=O)CN5CCCCC5)cnc4C)c3s2)cn1  VEGFR2, unphosphorylated (Homo sapiens (Human), UniProt P35968)    > 7.5 µM
2  Cc1ncc(NC(=O)NCCC2CCN(C)CC2)cc1NC(=O)c1cnn2cc(-c3cnn(C)c3)sc12  VEGFR2, unphosphorylated (Homo sapiens (Human), UniProt P35968)    > 2.5 µM
3  CC(=O)N1CCN(CCNC(=O)c2cnc(C)c(NC(=O)c3cnn4cc(-c5cnn(C)c5)sc34)c2)CC1  VEGFR2, unphosphorylated (Homo sapiens (Human), UniProt P35968)    > 7.5 µM

Shift focus to the following entry.
Note to self: IC50 recorded for `Cc1ncc(NC(=O)CN2CC3(CCCCO3)C2)cc1NC(=O)c1cnn2cc(-c3cnn4c3OCCC4)sc12` was > 7.5 µM

###

Parameter 'readout' = pIC50; parameter 'system' = His6-TEV-PDGFRβ (557-1016) (Homo sapiens (Human), UniProt P09619).
Please express pIC50 as -log10 of the molar concentration.

Examples with their reported pIC50 follow.
> print(dat)
                                   compound  meas.value
1  Cc1ncc(C(=O)NCCN2CCCC23CC3)cc1NC(=O)c1cnn2cc(-c3cnn(C)c3)sc12 [Example 2]        9.15
2  Cc1ncc(C(=O)NCCN2CCCC23COC3)cc1NC(=O)c1cnn2cc(-c3cnn(C)c3)sc12 [Example 114]        9.40
3  Cc1ncc(C(=O)NCCN2CC(C)(C)C2)cc1NC(=O)c1cnn2cc(-c3cnn4c3COCC4)sc12 [Example 489]        9.30

Shift focus to the following entry.
Item: Cc1ncc(NC(=O)OC[C@@H]2CCCN2C)cc1NC(=O)c1cnn2cc(-c3cccc4c3cnn4C)sc12 [Example 257] | System: His6-TEV-PDGFRβ (557-1016) (Homo sapiens (Human), UniProt P09619) | pIC50: 9.70

###

Each item that follows carries a reported log10 of IC50.
# Test System: UniProt Q05030
# Sequence (Q05030 32-1097): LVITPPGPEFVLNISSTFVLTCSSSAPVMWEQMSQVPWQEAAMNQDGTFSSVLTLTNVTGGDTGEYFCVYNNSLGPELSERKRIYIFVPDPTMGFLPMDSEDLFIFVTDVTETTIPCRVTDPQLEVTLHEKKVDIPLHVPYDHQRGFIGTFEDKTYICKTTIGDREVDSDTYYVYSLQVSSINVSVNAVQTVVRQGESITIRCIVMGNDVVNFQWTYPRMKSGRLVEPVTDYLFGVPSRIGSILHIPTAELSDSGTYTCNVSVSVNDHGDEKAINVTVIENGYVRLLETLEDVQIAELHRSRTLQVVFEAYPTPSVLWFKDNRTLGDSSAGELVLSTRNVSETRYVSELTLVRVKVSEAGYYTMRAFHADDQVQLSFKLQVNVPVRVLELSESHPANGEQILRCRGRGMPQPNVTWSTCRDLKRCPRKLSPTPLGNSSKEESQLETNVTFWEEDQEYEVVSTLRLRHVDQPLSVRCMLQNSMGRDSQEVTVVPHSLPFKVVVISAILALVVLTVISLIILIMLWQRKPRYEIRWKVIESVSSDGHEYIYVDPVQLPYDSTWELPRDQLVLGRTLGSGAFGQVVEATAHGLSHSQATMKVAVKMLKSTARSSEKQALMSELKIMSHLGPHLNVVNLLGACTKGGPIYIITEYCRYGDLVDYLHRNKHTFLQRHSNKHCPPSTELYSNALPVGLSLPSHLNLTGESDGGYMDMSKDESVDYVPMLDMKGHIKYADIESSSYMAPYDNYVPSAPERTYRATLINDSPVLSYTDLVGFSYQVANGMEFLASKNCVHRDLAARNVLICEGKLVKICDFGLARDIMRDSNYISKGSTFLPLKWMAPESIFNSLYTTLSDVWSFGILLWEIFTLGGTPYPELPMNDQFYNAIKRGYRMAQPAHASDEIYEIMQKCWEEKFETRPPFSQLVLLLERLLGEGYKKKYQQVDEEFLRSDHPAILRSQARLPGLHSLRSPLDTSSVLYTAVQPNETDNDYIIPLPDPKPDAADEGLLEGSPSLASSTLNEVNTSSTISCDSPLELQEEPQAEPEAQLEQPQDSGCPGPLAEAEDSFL
# Experiment Notes: PDGFRβ Cellular Assay (PDGFRb P-Y751 HTRF in A10 cells stimulated with PDGF-BB)
# Format: cell-based
# Condition Label: read-out: PDGFR Cellular IC50
log10 IC50, nM

Examples with their reported log10 of IC50 follow.
> print(dat)
                         compound.structure  meas.value
1  Cc1cc(C(=O)NCCN2CCCC2(C)C)sc1NC(=O)c1cnn2cc(-c3ccc(N)nc3)sc12        3.21
2  COCCn1cc(-c2cn3ncc(C(=O)Nc4cc(NC(=O)CN5CCC[C@H]5C)cnc4C)c3s2)cn1        0.83
3  Cc1ncc(NC(=O)CN2C[C@H](C)O[C@@H](C)C2)cc1NC(=O)c1cnn2cc(-c3cc[nH]c3)sc12        0.68
4  COc1ncccc1-c1cn2ncc(C(=O)Nc3cc(NC(=O)CN4CCCC4)cnc3C)c2s1        0.45
5  Cc1cc(C(=O)NCCN2CCC3(CCC3)CC2)sc1NC(=O)c1cnn2cc(-c3cnn(C)c3)sc12        2.65
6  Cc1ncc(NC(=O)CN2CC3(COC3)C2)cc1NC(=O)c1cnn2cc(-c3cnn4c3OCCC4)sc12        2.06

Note to self: log10 of IC50 recorded for `Cc1ncc(NC(=O)[C@@H]2C[C@@H](C)CN2C)cc1NC(=O)c1cnn2cc(-c3cnn(C)c3)sc12` was 0.97

###

# Test System: Tb-labeled inactive PDGFRβ (Homo sapiens (Human), UniProt P09619)
# Sequence (P09619 33-1106): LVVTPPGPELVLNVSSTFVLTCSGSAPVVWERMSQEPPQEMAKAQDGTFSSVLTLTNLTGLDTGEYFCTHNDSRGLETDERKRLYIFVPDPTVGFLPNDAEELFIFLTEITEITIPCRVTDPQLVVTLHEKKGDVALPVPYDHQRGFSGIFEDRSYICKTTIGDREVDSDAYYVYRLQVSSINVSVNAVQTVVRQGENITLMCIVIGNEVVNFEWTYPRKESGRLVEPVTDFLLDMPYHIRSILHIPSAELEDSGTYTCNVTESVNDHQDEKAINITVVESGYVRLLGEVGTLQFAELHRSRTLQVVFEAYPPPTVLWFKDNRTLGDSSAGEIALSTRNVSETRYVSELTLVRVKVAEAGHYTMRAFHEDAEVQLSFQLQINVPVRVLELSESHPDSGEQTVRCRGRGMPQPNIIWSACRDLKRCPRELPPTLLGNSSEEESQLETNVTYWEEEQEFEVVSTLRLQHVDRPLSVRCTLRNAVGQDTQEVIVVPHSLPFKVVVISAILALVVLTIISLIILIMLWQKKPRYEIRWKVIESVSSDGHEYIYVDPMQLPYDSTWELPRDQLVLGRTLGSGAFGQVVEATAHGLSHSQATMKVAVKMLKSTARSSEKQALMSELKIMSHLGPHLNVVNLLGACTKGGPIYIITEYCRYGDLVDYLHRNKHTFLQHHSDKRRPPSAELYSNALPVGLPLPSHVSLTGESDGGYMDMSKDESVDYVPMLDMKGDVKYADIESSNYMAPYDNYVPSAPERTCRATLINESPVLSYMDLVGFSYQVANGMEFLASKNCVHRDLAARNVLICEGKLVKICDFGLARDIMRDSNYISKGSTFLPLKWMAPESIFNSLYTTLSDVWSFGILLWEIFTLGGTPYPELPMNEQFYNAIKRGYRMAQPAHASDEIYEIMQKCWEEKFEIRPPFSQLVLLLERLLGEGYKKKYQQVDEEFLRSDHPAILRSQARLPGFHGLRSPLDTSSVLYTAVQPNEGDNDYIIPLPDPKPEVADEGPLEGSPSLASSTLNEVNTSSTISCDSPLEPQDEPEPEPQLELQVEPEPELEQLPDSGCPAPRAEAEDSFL
# Experiment Notes: PDGFRβ LanthaScreen Assay
# Condition Label: read-out: PDGFR Lantha IC50
Each item that follows carries a reported IC50.
API: value field is a number in nM; no unit string.

Examples with their reported IC50 follow.
> print(dat)
                                   compound                               test.system  meas.value
1  Cc1ncc(NC(=O)CN2CCc3ncccc3C2)cc1NC(=O)c1cnn2cc(-c3cnn(C)c3)sc12  Tb-labeled inactive PDGFRβ (Homo sapiens (Human), UniProt P09619)        42.9
2  Cc1cc(C(=O)NCCN2CCCC2(C)C)sc1NC(=O)c1cnn2cc(-c3cccnc3)sc12  Tb-labeled inactive PDGFRβ (Homo sapiens (Human), UniProt P09619)        19.3
3  Cc1ncc(C(=O)NCCN2CC3CCC2CC3)cc1NC(=O)c1cnn2cc(-c3cn(C)nc3C)sc12  Tb-labeled inactive PDGFRβ (Homo sapiens (Human), UniProt P09619)         1.8

Shift focus to the following entry.
Note to self: IC50 recorded for `COCCn1cc(-c2cn3ncc(C(=O)Nc4cc(NC(=O)CCN5CCC(C)(C)C5)cnc4C)c3s2)cn1` was 12.7

###

# Test System: VEGFR2, unphosphorylated (Homo sapiens (Human), UniProt P35968)
# Experiment Notes: VEGFR ADP GLO Assay
pIC50: −log10 of the molar value.
Each item that follows carries a reported pIC50.

Examples with their reported pIC50 follow.
> print(dat)
                                   compound                               test.system  observable  meas.value
1  COC1CCN(CC(=O)Nc2cnc(C)c(NC(=O)c3cnn4cc(-c5cnn(C)c5)sc34)c2)CC1 [Example 83]  VEGFR2, unphosphorylated (Homo sapiens (Human), UniProt P35968)       pIC50      < 5.12
2  Cc1ncc(NC(=O)CN2CCN(C)C(=O)C2)cc1NC(=O)c1cnn2cc(-c3cnn(C)c3)sc12 [Example 72]  VEGFR2, unphosphorylated (Homo sapiens (Human), UniProt P35968)       pIC50      < 5.12
3  Cc1ncc(NC(=O)CN2C[C@H](C)O[C@@H](C)C2)cc1NC(=O)c1cnn2cc(-c3cnc(N)c(F)c3)sc12 (relative stereo) [Example 372]  VEGFR2, unphosphorylated (Homo sapiens (Human), UniProt P35968)       pIC50      < 5.60

Note to self: pIC50 recorded for Cc1ncc(C(=O)NCCN2CC3CCC2CC3)cc1NC(=O)c1cnn2cc(-c3cnn(C4CC4)c3)sc12 [Example 181] was < 5.12
